experiment: CuAAC macrocyclisation (azide + terminal alkyne to 1,4-triazole); CuI 2 eq, DIPEA 3 eq; yield includes preceding coupling step on crude precursor; conditions: the molecule shown is the open-chain precursor; 18-membered ring; THF; 1.0 mM; 66.0 °C; 2 steps
ATTRIBUTE MEASURED: ring closure, yield over several steps (%)

COMPOUND	UNIT SPEC	MEASURED VALUE
C#CCN(CC(=O)OCCC(F)(F)C(F)(F)C(F)(F)C(F)(F)C(F)(F)C(F)(F)C(F)(F)C(F)(F)F)C(=O)c1cccc(N(C(=O)CCCCCCCN=[N+]=[N-])C(C(=O)NC2CCCCC2)c2ccccc2)c1 (centres unmarked) [17a -> 28a (over two steps from 2)]	%	18
C#CCN(CC(=O)OCCC(F)(F)C(F)(F)C(F)(F)C(F)(F)C(F)(F)C(F)(F)C(F)(F)C(F)(F)F)C(=O)c1cccc(NC(C#N)c2cccc(CCCCN=[N+]=[N-])c2)c1 (centres unmarked) [22 -> 34 (over two steps from 2)]	%	71
C#CCN(CC(=O)OCCC(F)(F)C(F)(F)C(F)(F)C(F)(F)C(F)(F)C(F)(F)C(F)(F)C(F)(F)F)C(=O)c1ccc2c(c1)N[C@H](c1cccc(CCCCN=[N+]=[N-])c1)[C@H]1CCCO[C@@H]21 [21b -> 25b (from 21b/21c mixture, over two steps from 2)]	%	4
C#CCN(CC(=O)OCCC(F)(F)C(F)(F)C(F)(F)C(F)(F)C(F)(F)C(F)(F)C(F)(F)C(F)(F)F)C(=O)c1cccc(N(C(=O)CCCCCCCN=[N+]=[N-])C(C(=O)NC2CCCCC2)c2ccc(Br)cc2)c1 (centres unmarked) [17b -> 29a (over two steps from 2)]	%	24
C#CCN(CC(=O)OCCC(F)(F)C(F)(F)C(F)(F)C(F)(F)C(F)(F)C(F)(F)C(F)(F)C(F)(F)F)C(=O)c1cccc2c1[C@@H]1OCCC[C@@H]1[C@H](c1cccc(CCCCN=[N+]=[N-])c1)N2 [21c -> 25c (from 21b/21c mixture, over two steps from 2)]	%	7
